# Measurement Target: human caspase-2 (Homo sapiens, UniProt P42575)
# Construct: inferred from pET23b, XhoI reverse primer without stop codon, Ni-NTA purification) (C); made in house; host or cells: E. coli BL21(DE3)
# Sequence (P42575 170-452): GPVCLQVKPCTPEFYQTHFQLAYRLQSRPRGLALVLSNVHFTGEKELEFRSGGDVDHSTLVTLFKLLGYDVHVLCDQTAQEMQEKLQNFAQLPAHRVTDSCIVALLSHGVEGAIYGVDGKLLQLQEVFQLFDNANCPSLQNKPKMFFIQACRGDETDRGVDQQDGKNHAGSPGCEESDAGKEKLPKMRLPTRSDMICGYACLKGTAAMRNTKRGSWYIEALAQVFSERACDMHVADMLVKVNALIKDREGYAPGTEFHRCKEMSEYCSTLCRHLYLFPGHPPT
# Measurement Notes: Fluorescent enzyme assay, Casp2 (AFC substrate Z-VDVAD-AFC)
# Assay type: biochemical
# Recorded Conditions: mean ± SEM of N independent experiments, each in duplicate or triplicate; read-out: pKi ± SEM Casp 2 (converted)
Reported log10 Ki values are given for each entry in this list.
Annotation: log10 of Ki, µM basis.

Illustrative cases are given below, each with its answer.
CC(=O)N1c2ccccc2C[C@H]1C(=O)N[C@@H](CCCC(=O)O)C(=O)N[C@H](C(=O)N1CCc2cc(C)ccc2[C@H]1C(=O)N[C@H](C=O)CC(=O)O)C(C)C | -0.42
CC(=O)N[C@H](C(=O)NC(CC(=O)O)C(=O)N[C@H](C(=O)N1CCc2cc(C)ccc2C1C(=O)N[C@H](C=O)CC(=O)O)C(C)C)C(C)C (stereo in doubt) [Compound 30a, reference compound] | 1.02
CC(=O)N1c2ccccc2C[C@H]1C(=O)N[C@@H](CCCC(=O)O)C(=O)NCC(=O)N1CCc2cc(C)ccc2[C@H]1C(=O)N[C@H](C=O)CC(=O)O | -1.53
CC(=O)N1c2ccccc2C[C@H]1C(=O)N[C@@H](CCCC(=O)O)C(=O)N[C@H](C(=O)N1CCc2cc(C)ccc2[C@H]1C(=O)N[C@H](C=O)CC(=O)O)[C@H](C)OCc1ccccc1 | 0.78

As a next step, examine the compound that follows.
Which log10 Ki value is on record for CC(=O)N1c2ccccc2C[C@H]1C(=O)N[C@@H](CCCC(=O)O)C(=O)N[C@H](C(=O)N1CCc2cc(C)ccc2[C@H]1C(=O)N[C@H](C=O)CC(=O)O)C(C)(C)C ? 0.33

###

# Measurement Target: human caspase-2 (Homo sapiens)
# Construct: inferred from pET23b, XhoI reverse primer without stop codon, Ni-NTA purification) (C); made in house; host or cells: E. coli BL21(DE3)
# Sequence (P42575 170-452): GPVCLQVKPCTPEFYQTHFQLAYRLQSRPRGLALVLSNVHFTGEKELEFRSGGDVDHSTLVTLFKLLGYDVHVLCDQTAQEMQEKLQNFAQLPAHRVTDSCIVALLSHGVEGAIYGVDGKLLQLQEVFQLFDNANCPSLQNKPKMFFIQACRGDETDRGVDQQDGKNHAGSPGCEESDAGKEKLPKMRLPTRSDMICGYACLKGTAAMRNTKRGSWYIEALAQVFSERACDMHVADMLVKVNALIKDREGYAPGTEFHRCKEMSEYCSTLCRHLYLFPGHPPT
# Measurement Notes: Fluorescent enzyme assay, Casp2 (AFC substrate Z-VDVAD-AFC)
# Format: biochemical
# Recorded Conditions: selectivity Casp2 over Casp3
*1 amine or outer side, *2 acyl side, *3 side chain or, on linkers, in order; H or OH if unused. Where a SMILES comes first, the peptide text is derived from it. [ ]: non-standard residue; d: D form. The star is where a group is joined. ξ: configuration not given here. X1 = Cc1ccc2c(c1)CCN([*:1])[C@@H]2C(=O)[*:2]; ξ(indoline-2-carboxyl) = O=C(O)C1Cc2ccccc2N1; ξTHIQ1CO(6-Me) = Cc1ccc2c(c1)CCNC2C(=O)O; X3 = O=C([C@@H]1Cc2ccccc2N1[*:1])[*:2]; Aad = N[C@@H](CCCC(=O)O)C(=O)O; Thr(3ξ) = CC(O)[C@H](N)C(=O)O; Bn = c1ccc(C*)cc1
Label scheme, based on Ki (Casp3) / Ki (Casp2): range A = under 20, range B = from 20 up to 300, range C = 300 and over

Illustrative cases are given below, each with its answer.
CC(=O)N[C@H](C(=O)N[C@@H](CC(=O)O)C(=O)N[C@H](C(=O)N1CCc2cc(C)ccc2[C@H]1C(=O)N[C@H](C=O)CC(=O)O)C(C)C)C(C)C [Compound 30b, reference compound] | range B
Cc1ccc2c(c1)CCN(C(=O)[C@@H](NC(=O)[C@H](CCCC(=O)O)NC(=O)[C@@H]1Nc3ccc(F)cc3C1(C)C)C(C)C)[C@@H]2C(=O)N[C@H](C=O)CC(=O)O | range B
Cc1ccc2c(c1)CCN(C(=O)CNC(=O)[C@H](CCCC(=O)O)NC(=O)[C@@H]1Cc3ccccc3N1)[C@@H]2C(=O)N[C@H](C=O)CC(=O)O | range C
CC(=O)N1c2ccccc2C[C@H]1C(=O)N[C@@H](CCCC(=O)O)C(=O)N[C@H](C(=O)N1CCc2cc(C)ccc2[C@H]1C(=O)N[C@H](C=O)CC(=O)O)[C@H](C)OCc1ccccc1 | range A
CC(=O)N1c2ccccc2C[C@H]1C(=O)N[C@@H](CCCC(=O)O)C(=O)NCC(=O)N1CCc2cc(C)ccc2[C@H]1C(=O)N[C@H](C=O)CC(=O)O | range C
Cc1ccc2c(c1)CCN(C(=O)[C@@H](NC(=O)[C@H](CCCC(=O)O)NC(=O)[C@@H]1Cc3ccccc3N1)C(C)OCc1ccccc1)C2C(=O)N[C@H](C=O)CC(=O)O (stereo partly drawn) [Compound 6] (H-[X3][Aad][Thr(3ξ)](Bn)[ξTHIQ1CO(6-Me)]D-aldehyde) | range A
Cc1ccc2c(c1)CCN(C(=O)[C@@H](NC(=O)[C@H](CCCC(=O)O)NC(=O)[C@H]1Nc3ccc(F)cc3C1(C)C)C(C)C)C2C(=O)N[C@H](C=O)CC(=O)O (stereo partly shown) | range B
Cc1ccc2c(c1)CCN(C(=O)[C@@H](NC(=O)[C@H](CCCC(=O)O)NC(=O)C1Cc3ccccc3N1)C(C)C)[C@@H]2C(=O)N[C@H](C#N)CC(=O)O (stereo partly shown) | range B

Please examine the following record next.
// return the class label for Cc1ccc2c(c1)CCN(C(=O)[C@@H](NC(=O)[C@H](CCCC(=O)O)NC(=O)C1Cc3ccccc3N1)C(C)C)[C@@H]2C(=O)N[C@H](C=O)CC(=O)O (stereo partly drawn) [Compound 2] (H-[ξ(indoline-2-carboxyl)][Aad]V[X1]D-aldehyde) range C

###

# Measurement Target: human caspase-2 (Homo sapiens)
# Construct: inferred from pET23b, XhoI reverse primer without stop codon, Ni-NTA purification) (C); made in house; host or cells: E. coli BL21(DE3)
# Measurement Notes: Fluorescent enzyme assay, Casp2 (AFC substrate Z-VDVAD-AFC)
# Type: biochemical
*1 amine or outer side, *2 acyl side, *3 side chain or, on linkers, in order; H or OH if unused. Where a SMILES comes first, the peptide text is derived from it. [ ]: non-standard residue; d: D form. The star is where a group is joined. ξ: configuration not given here. X1 = Cc1ccc2c(c1)CCN([*:1])[C@@H]2C(=O)[*:2]; ξ(indoline-2-carboxyl) = O=C(O)C1Cc2ccccc2N1; ξTHIQ1CO(6-Me) = Cc1ccc2c(c1)CCNC2C(=O)O; X3 = O=C([C@@H]1Cc2ccccc2N1[*:1])[*:2]; Aad = N[C@@H](CCCC(=O)O)C(=O)O; Thr(3ξ) = CC(O)[C@H](N)C(=O)O; Bn = c1ccc(C*)cc1
Property Name: Ki (nM)
Respond with the bare value in nM.

Cc1ccc2c(c1)CCN(C(=O)CNC(=O)[C@H](CCCC(=O)O)NC(=O)[C@@H]1Cc3ccccc3N1)[C@@H]2C(=O)N[C@H](C=O)CC(=O)O [Compound 5] | 17

Which Ki value is on record for Cc1ccc2c(c1)CCN(C(=O)[C@@H](NC(=O)[C@H](CCCC(=O)O)NC(=O)C1Cc3ccccc3N1)C(C)C)[C@@H]2C(=O)N[C@H](C=O)CC(=O)O (stereo partly drawn) [Compound 2] (H-[ξ(indoline-2-carboxyl)][Aad]V[X1]D-aldehyde) ? 39.8

Which Ki value is on record for Cc1ccc2c(c1)CCN(C(=O)[C@@H](NC(=O)[C@H](CCCC(=O)O)NC(=O)[C@@H]1Cc3ccccc3N1)C(C)OCc1ccccc1)C2C(=O)N[C@H](C=O)CC(=O)O (stereo partly drawn) [Compound 6] (H-[X3][Aad][Thr(3ξ)](Bn)[ξTHIQ1CO(6-Me)]D-aldehyde) ? 2290

Which Ki value is on record for Cc1ccc2c(c1F)CCN(C(=O)[C@@H](NC(=O)[C@H](CCCC(=O)O)NC(=O)[C@@H]1Cc3ccccc3N1)C(C)C)C2C(=O)N[C@H](C=O)CC(=O)O (stereo partly shown) [Compound 14] ? 191
